- experimental target: α1F295A, F399Aβ3γ2L GABAAR (Mus musculus, UniProt P22723+P62812+P63080, F322A/F426A)
- Construct: expressed in transfected cells; host or cells: HEK 293 cells (ATCC CRL-1573)
- experiment notes: Whole-cell voltage-clamp electrophysiology, mutant α1F295A,F399Aβ3γ2L in HEK cells
- Assay type: cell-based, murine
- condition context: Decay inhibition (pIC50), GABA current weighted decay time constant
Known IC50 of a selection of compounds
State the answer as a number, implicitly in µM.

1) C[C@]12CC[C@H](OS(=O)(=O)O)CC1=CCC1C2CC[C@@]2(C)C1CC[C@@H]2C(=O)Cn1cccn1 (some centres unmarked) = 1.23

# ---- query compound ----
Query: Requested field: IC50. Item: C[C@]12CC[C@H](OS(=O)(=O)O)CC1=CCC1C2CC[C@@]2(C)C1CC[C@@H]2C(=O)CN1CCOCC1 (some centres unmarked)
Response: 7.21
